Assay: CCTE_Shafer_MEA_acute_burst_percentage_mean: CCTE's Neural Acute Assay for Percentage of Spikes in a Burst, Shafer Lab (AID 2284017)
The source made the active and inactive calls. Rule for the calls: active = hit-call score of the fitted dose curve at least 0.9, where 1 is the maximum; inactive = score below 0.9.
Classes used: active, inactive

In [3]: df
Out[3]:
                                 smilesdata  grouplabel
0                          c1ccc2n[nH]nc2c1    inactive
1  CN(C)c1ccc(C(=C2C=CC(=[N+](C)C)C=C2)c2ccc(N(C)C)cc2)cc1      active
2  Cc1cn([C@H]2C[C@H](N=[N+]=[N-])[C@@H](CO)O2)c(=O)[nH]c1=O    inactive
